# TEST_DESCRIPTION: Primary qHTS for inhibitors of nuclear receptor binding SET domain protein 2 (NSD2) in an RCH-ACV wild type WT cells (2C) (AID 1645877); also: nearly all actives have a fitted effect of over 70% in size
# EXPERIMENTAL_SETUP: RCH-ACV (leukaemia line) NSD2 WT (2C) viability, CellTiter-Glo, 72 h; series mostly up to 44.9 µM
Inconclusive results are not listed. Active and inactive are the calls of the source. Calls follow the shape of the dose curve; as a rule, active = well fitted inhibition curve with a large enough effect; inconclusive = small, poorly fitted or top-dose-only effect; inactive = no such curve, though single readings can be large or run the other way.
Mark one answer only. Choices: active, inactive

State the result this test recorded for CC1=C(C(=O)O[C@@H]2O[C@H](COC3OCC(O)C(O)C3O)[C@@H](O)[C@H](O)[C@H]2O)C(C)(C)CCC1 (stereo partly drawn) .
inactive

Entry COc1cc(C(=O)O)ccc1OC1OC(CO)C(O)C(O)C1O (stereo not drawn) : call = ?
inactive

Look up the recorded call for CC(C)(C)NCCCNC(=O)c1cccc(Br)c1 in this test.
inactive

Short answer needed: outcome of this test for CC1(C)C[C@H](O)C[C@@]2(C)OC(=O)C=C12 ?
inactive

Record request — test call for CC(=O)O[C@@](C)(C(=O)/C=C/C(C)(C)O)[C@H]1[C@H](O)C[C@@]2(C)[C@@H]3CC=C4[C@@H](C=C(O)C(=O)C4(C)C)[C@]3(C)C(=O)C[C@]12C
active

Hey, what did the test say about CC1(C)CC[C@]23CO[C@@]4(CCC5[C@@]6(C)CC[C@H](O[C@@H]7OC[C@H](O[C@@H]8O[C@H](CO)[C@@H](O)[C@H](O)[C@H]8O)[C@H](O)[C@H]7O[C@@H]7O[C@H](CO)[C@@H](O[C@@H]8O[C@H](CO)[C@@H](O)[C@H](O)[C@H]8O)[C@H](O)[C@H]7O)[C@@](C)(CO)C6CC[C@@]5(C)[C@]4(C)C[C@H]2OC2OCC(O)C(O)C2O)C3C1 (stereo partly drawn) ?
active

Any idea what this test logged for COC(=O)C12C(=O)C(C)=C(O)C1(C)C(C)=CC1C3(CO)CCC(O)C(C)(C)C3CCC12C (stereo not drawn) ?
inactive

How was CC(=O)O[C@@H]1[C@@H](CO)O[C@@](CO)(O[C@H]2O[C@H](COC(=O)/C=C/c3ccccc3)[C@@H](O)[C@H](O)[C@H]2O)[C@H]1O classified in this test?
inactive

----------
# Test system: KB-3-1
# TEST_DESCRIPTION: Cytotoxic Profiling of Annotated Libraries Using Quantitative High-Throughput Screening (AID 1296008); also: % is scaled to controls: 0 for no effect and ±100 for the full control effect; nearly all actives have a fitted effect of over 60% in size
# EXPERIMENTAL_SETUP: Five cell lines viability, CellTiter-Glo ATP luminescence, 48-72 h; hits give low values
Records with an inconclusive call do not appear.
Record form. Attribute: max response. Fill in for each entry.
Provide the reading as a plain figure in %.

Record summary for CC(C)(C)OC(=O)N1CCC(OCc2nc(-c3ccncc3)no2)CC1 : reported max response = -6.38

// sample CC(O)c1cc(C(=O)N[C@@H](C)Cn2ccc(-c3ccc(C#N)c(Cl)c3)n2)n[nH]1 (stereo partly drawn) , its max response was -27.8

Please fill in: max response reported for C/C=C1\[C@H](O[C@@H]2O[C@H](CO)[C@@H](O)[C@H](O)[C@H]2O)OC=C(C(=O)OC)[C@H]1CC(=O)OC[C@H]1O[C@@H](OCCc2ccc(O)cc2)[C@H](O)[C@@H](O)[C@@H]1O = 1.44

The reported max response of the molecule CC(C)(C)CCN1C[C@@H]2C(CNC(=O)c3cc(Cl)cc(Cl)c3)[C@@H]2C1 (stereo partly drawn) was -5.02

Value of max response reported for the molecule C=C(CO[C@@H]1O[C@H](CO[C@@H]2OC[C@](O)(CO)[C@H]2O)[C@@H](O)[C@H](O)[C@H]1O)C1Cc2cc(C(C)=O)ccc2O1 (stereo partly drawn) is 7.61

Query O=C(NCc1cccc(O)c1)Nc1nc(-c2ccncc2)cs1 yields max response of -3.25

Short answer for NCc1c[nH]c(=S)n1[C@@H]1CCc2c(F)cc(F)cc2C1 : max response was -4.38

Reported max response ( O=S(=O)(c1ccccc1)c1cnc2c(N3CCNCC3)cccc2c1 ) = 0.14

----------
# TEST_TARGET: Cytochrome P450 2D6 (Homo sapiens)
# TEST_DESCRIPTION: Cytochrome P450 family 2 subfamily D member 6 (CYP2D6) small molecule antagonists: luciferase biochemical (cell-free) qHTS assay (AID 1645840); also: nearly all actives have a fitted effect of over 55% in size
# EXPERIMENTAL_SETUP: P450-Glo CYP2D6 enzyme, luciferin luminescence, 1 h; series mostly up to 57.4 µM
# From the text: National Center for Advancing Translational Sciences [NCATS] Assay Overview: Cytochrome P450 (CYP) enzymes are membrane-bound hemeproteins that play a key role in metabolism of drugs and xenobiotics. Assaying the effect of chemicals on CYP isozymes is useful to minimize the adverse drug reactions and toxicities in drug development process. […] The luciferin products formed are detected with a luciferin detection reagent, and the amount of light produced is proportional to CYP activity. […]
Inconclusive results are not listed. The source made the active and inactive calls. Calls come from the whole dose curve; as a rule, active = well fitted inhibition curve with a large enough effect in the repeat runs; inconclusive = weak or mixed curves; inactive = flat fitted curve, though single readings scatter.
Just give me one of these, please: active, inactive

Record request — test call for CN1CCC(Nc2nc(Nc3ccc(Oc4ccccc4)cc3)c3c(=O)[nH]cc(Br)c3n2)CC1
active

Please let me know the test result on file for CN(C)CC1CCOC1(c1ccccc1)c1ccccc1 (stereo not given) .
active

Hi, do you know how O=C(c1cn(Cc2cncn2Cc2ccc(Br)cc2)cc1-c1cccc2ccccc12)N1CCOCC1 came out in this test?
active

What classification did C[C@@H]1CN(Cc2ncccn2)C[C@H]1c1nc2c(cnn2C2CCOCC2)c(=O)[nH]1 end up with in this test?
inactive

Short answer needed: outcome of this test for COc1ccc(CC2NCCc3c2[nH]c2ccc(C)cc32)cc1OC (stereo not given) ?
active

Recorded call for COc1ccc(C(=O)C2CCN(CC(=O)N(Cc3nc4c(c(=O)[nH]3)COCC4)CC3CC3)CC2)cc1 ?
inactive

Entry CC(NC(=O)CCc1nc2ccccc2c(=O)[nH]1)c1ccccc1 (stereo not given) : call = ?
inactive

I'd appreciate the recorded outcome for CN1CCN(C2CCC(n3cc(-c4ccc(Oc5ccccc5)cc4)c4c(N)ncnc43)CC2)CC1 (stereo not given) from this test.
active

// return assay outcome for Cc1cc(C(=O)Nc2cccc(C(=O)Nc3cccc(C(F)(F)F)c3)c2)on1
inactive

// return assay outcome for COc1ccc2[nH]c3c(-c4cccc5ccccc45)nccc3c2c1
active

----------
# Tested on: KB-3-1
# TEST_DESCRIPTION: Cytotoxic Profiling of Annotated Libraries Using Quantitative High-Throughput Screening (AID 1296008); also: % is scaled to controls: 0 for no effect and ±100 for the full control effect; nearly all actives have a fitted effect of over 60% in size
# EXPERIMENTAL_SETUP: Five cell lines viability, CellTiter-Glo ATP luminescence, 48-72 h; hits give low values
Records with an inconclusive call do not appear.
Answer each item with its documented max response.
// note: answer is a bare numeric in %

For this molecule ( C/C=C/C=C/C=C/C(=O)OC1C=C(C=O)C(O)(C(=O)O)C2(C)CCCC(C)(C)C12 (stereo not given) ), measured max response is 7.06

Summary for this molecule, O=C(O)CC1CCC(c2ccc(-c3ccc4nc(C(=O)NCc5ccc(OC(F)(F)F)cc5)cn4c3)cc2)CC1 (stereo not given) : max response is -0.0408

Field max response (entry COC(=O)C1=COC(O[C@@H]2O[C@H](CO)[C@@H](O)[C@H](O)[C@H]2O)[C@H]2[C@@H]1[C@H](OC(=O)CCc1ccc(O)cc1)C[C@]2(C)O (stereo not given in full) ) reads -2.46

Field max response (entry C[C@@H]1CN(Cc2ncccn2)C[C@H]1c1nc2c(cnn2C2CCOCC2)c(=O)[nH]1 ) reads -1.41

Note to self: max response recorded for N[C@H]1Cc2ccccc2N(O)C1=O was -13.7

Measured max response, CC/C=C\[C@H](O)[C@H](O)C1=C(C)C(=O)[C@]2(O1)C(=O)N[C@@](OC)(C(=O)c1ccccc1)[C@@H]2O : 7.92

For this molecule ( O=C1N=C(N2CCOCC2)CN1c1ccc(Cl)cc1 ), measured max response is 2.82

get_value(item= C=C(C)[C@@H]1CC[C@]2(C)CC[C@]3(C)[C@H](CC[C@@H]4[C@@]5(C)CC[C@@H](O)C(C)(C)[C@@H]5CC[C@]43C)[C@@H]12 , readout=max response) returns -4.19

CC(C)(C)NCCCNC(=O)c1cccc(Br)c1 has a reported max response of 6.67

Note to self: max response recorded for NC1CCCCN(c2c(F)cc3c(=O)c(C(=O)O)cn(C4CC4)c3c2Cl)C1 (stereo not given) was -4.74

Looking up O=C1CC2(CCCC2)[C@H](O)C(=O)N1CCCCN1CCN(c2ncccn2)CC1 , I found its max response recorded as -7.77

Lookup result for CC1=C(COC2OC(CO)C(O)C(O)C2O)C(C(CO)C(=O)O)CC1 (stereo not given) ; measured max response: 9.18

max response for CCCC1(c2ccccc2)NC(=O)N(CC(=O)N(C)Cc2c(F)cccc2Cl)C1=O (stereo not given) is -1.57

Quick note, max response for Cn1c(=O)cc(N2CCCC(N)C2)n(Cc2cc(F)ccc2C#N)c1=O (stereo not given) landed at -0.0728

So for CC(=O)O[C@@H]1[C@H](O[C@@H]2O[C@@H](CO)[C@H](O)[C@H]2O)[C@@H](O[C@@H]2O[C@@H](C)[C@H](O[C@@H]3OC[C@@H](O)[C@H](O)[C@H]3O)[C@@H](O)[C@H]2O)[C@H](OC(=O)[C@]23CCC(C)(C)C[C@H]2C2=CCC4[C@@]5(C)CC[C@H](O[C@@H]6O[C@H](C(=O)O)[C@@H](O)[C@H](O)[C@H]6O[C@@H]6O[C@H](CO)[C@H](O)[C@H](O)[C@H]6O)[C@@](C)(C=O)C5CC[C@@]4(C)[C@]2(C)CC3)O[C@@H]1C (stereo not given in full) , the logged max response turned out to be 5.7
